Field: IC50. Provide a value for each of the sequences that follow.
SYSTEM_UNDER_TEST: NP-1 (Homo sapiens, UniProt O14786)
Sequence (O14786 22-923): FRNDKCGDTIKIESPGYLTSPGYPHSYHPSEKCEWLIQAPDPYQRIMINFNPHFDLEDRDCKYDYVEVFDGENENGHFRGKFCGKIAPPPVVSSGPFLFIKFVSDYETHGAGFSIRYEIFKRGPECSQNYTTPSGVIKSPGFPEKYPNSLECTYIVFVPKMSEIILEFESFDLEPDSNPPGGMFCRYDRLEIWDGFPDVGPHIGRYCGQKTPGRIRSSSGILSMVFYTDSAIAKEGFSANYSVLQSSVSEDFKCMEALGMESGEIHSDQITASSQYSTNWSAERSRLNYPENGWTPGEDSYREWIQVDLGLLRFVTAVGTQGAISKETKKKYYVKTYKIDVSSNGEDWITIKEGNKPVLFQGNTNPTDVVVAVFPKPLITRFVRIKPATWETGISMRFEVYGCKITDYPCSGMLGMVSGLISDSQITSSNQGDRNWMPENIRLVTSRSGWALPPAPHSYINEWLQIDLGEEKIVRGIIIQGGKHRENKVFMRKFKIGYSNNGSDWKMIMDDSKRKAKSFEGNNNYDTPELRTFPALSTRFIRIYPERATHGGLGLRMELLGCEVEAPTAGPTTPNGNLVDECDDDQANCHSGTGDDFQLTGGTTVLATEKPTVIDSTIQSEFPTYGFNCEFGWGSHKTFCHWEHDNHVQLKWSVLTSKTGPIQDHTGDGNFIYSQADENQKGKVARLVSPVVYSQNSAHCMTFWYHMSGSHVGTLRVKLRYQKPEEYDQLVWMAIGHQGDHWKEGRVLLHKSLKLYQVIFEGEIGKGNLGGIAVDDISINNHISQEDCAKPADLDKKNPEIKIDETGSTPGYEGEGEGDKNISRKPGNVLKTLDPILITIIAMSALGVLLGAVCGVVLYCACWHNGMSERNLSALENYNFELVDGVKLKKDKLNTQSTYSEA
PROCEDURE_DETAILS: Whole cell binding assay: competition for 125I-VEGF165 in stable Balb/C 3T3 A31 cells overexpressing NP-1
EXPERIMENTAL_SETUP: Balb/C 3T3 A31 cells; competition for 125I-VEGF165
Protocol: Balb/C 3T3 A31 VEGFR-2, NP-1, and VEGFR-2/NP1 stable cells are created using the Nolan Lab Phoenix Retroviral system, previously described. […] Unbound ligand is then removed by quickly washing three times with 5 ml ice cold BSA-free binding buffer (MEM, Gibco, 25 mM Hepes, Gibco). Cells are lysed by the addition of 250 μl of RIPS Buffer (previously described), and the lysed cells are transferred to 12×75 mm test tubes and counted using a gamma counter. […]
Ends that are not written are not given here.
Answers are plain numbers, in µM.

RRPKGRGKRRREAAAPSDKPRR [AS-4]	0.0178

Let us move to another entry and its IC50.
# get_value(readout='IC50', item= KGRGKRRREKQRPCDKPRR [Peptide P6V8-3N, KGR GKR RRE KQR P CDK PRR] )
0.254

###

SYSTEM_UNDER_TEST: NP-1 (Homo sapiens, UniProt O14786)
Assay type: binding
Set-up: the NP-1 cDNA used for these experiments would only produce the full-length receptor; expressed in transfected cells; host or cells: COS-1
Method: When co-expressing VEGFR-2 and NP-1, 5 μg of VEGFR-2 cDNA and 2 μg of NP-1 cDNA are used. When the receptors are expressed in isolation, for VEGFR-2, 5 μg of VEGFR-2 cDNA and 2 μg of mock vector cDNA are used. After generation of the liposome/DNA solution, the cells are rinsed one time with 5 ml Optimem I, then replaced with another 5 ml of Optimem I containing the liposome/DNA solution. […]
Ends that are not written are not given here.
The threshold is 8. Values of Relative Affinity to Lead Peptide (RALP), NP-1 beneath it are tagged 1; values meeting or exceeding it are tagged 0.

Some solved cases for reference:
H-KGRGKARREKQRPSDKPRR-OH [Peptide P6V8-3NCSA6]	1
RRPKGRGKRRREAAAPSDKPRR [AS-4]	1
H-KGRGKRAAEAQRPSDKPRR-OH [P6V8-3NCSA7,8, 10]	0
H-KGAGKRRREKQRPSDKPRR-OH [Peptide P6V8-3NCSA3]	0
H-KGRGKRAAEAQAPSDAPAR-OH [P6V8-3NCSA7,8, 10, 12, 16, 18]	0
H-KGRGKRAAEKQAPSDKPRR-OH [P6V8-3NCSA7,8, 12]	1
H-AGRGARAAEAQRPSDKPRR-OH [P6V8-3NCSA1,5,7,8, 10]	0
H-AGRGKARREKQRPSDKPRR-OH [P6V8-3NCSA1A6]	1
H-KGAGKARREKQRPSDKPRR-OH [P6V8-3NCSA3A6]	0
H-RRPKGRGKRRREKQRPSDAAAR-OH [AS-5]	1

Hello, is Relative Affinity to Lead Peptide (RALP), NP-1 of the following substance strictly smaller than 8? H-RRPKGRGKRRREKQRAAAKPRR-OH [AS-4A]
1

Hello, is Relative Affinity to Lead Peptide (RALP), NP-1 of the following substance strictly smaller than 8? H-AGRGKRRREKQRPSDKPRR-OH [Peptide P6V8-3NCSA1]
1

Hello, is Relative Affinity to Lead Peptide (RALP), NP-1 of the following substance strictly smaller than 8? H-RRPKGRGKRAAAKQRPSDKPRR-OH [AS-3, RRP KGR GKR AAA KQR PSD KPR R]
1

###

Test system: VEGFR-2/NP-1
Construct: In the COS-1 cells overexpressing the full-length VEGFR-2; the NP-1 cDNA used for these experiments would only produce the full-length receptor; expressed in transfected cells; host or cells: COS-1
Assay type: binding, human
Ends that are not written are not given here.
OBSERVATION_TYPE: Relative Affinity to Lead Peptide (RALP), VEGFR-2/NP-1
Numbers only.

RRPKGRGKRRREAAAPSDKPRR [AS-4]	4.2
H-AGRGKARREKQRPSDKPRR-OH [P6V8-3NCSA1A6]	0.93

Batch: Relative Affinity to Lead Peptide (RALP), VEGFR-2/NP-1 for all items listed.
1. H-KGRGKRAAEAQAPSDAPAR-OH [P6V8-3NCSA7,8, 10, 12, 16, 18]
2. H-RRPKGRGKRRREKQRPSDAAAR-OH [AS-5]
3. H-KGAGKARREKQRPSDKPRR-OH [P6V8-3NCSA3A6]
4. H-AGRGARRREKQRPSDKPRR-OH [P6V8-3NCSA1A5]
5. H-AGRGARAAEAQRPSDKPRR-OH [P6V8-3NCSA1,5,7,8, 10]

27.540
0.71
8.20
0.71
5.22

Batch: Relative Affinity to Lead Peptide (RALP), VEGFR-2/NP-1 for all items listed.
1. H-KGAGKRRREKQRPSDKPRR-OH [Peptide P6V8-3NCSA3]
2. H-RRPAAAGKRRREKQRPSDKPRR-OH [AS-1, RRP AAA GKR RRE KQR PSD KPR R]
3. H-KGRGKARREKQRPSDKPRR-OH [Peptide P6V8-3NCSA6]
4. H-RRPKGRGKRRREKQRAAAKPRR-OH [AS-4A]
5. H-KGRGKRAAEAQRPSDKPRR-OH [P6V8-3NCSA7,8, 10]
6. H-KGRGARRREKQRPSDKPRR-OH [Peptide P6V8-3NCSA5]

1. 0.23
2. 1
3. 5.10
4. 0.78
5. 3.27
6. 1.45
